molecular target: Carbonic anhydrase 5A, mitochondrial (Homo sapiens)
Sequence (P35218 whole entry): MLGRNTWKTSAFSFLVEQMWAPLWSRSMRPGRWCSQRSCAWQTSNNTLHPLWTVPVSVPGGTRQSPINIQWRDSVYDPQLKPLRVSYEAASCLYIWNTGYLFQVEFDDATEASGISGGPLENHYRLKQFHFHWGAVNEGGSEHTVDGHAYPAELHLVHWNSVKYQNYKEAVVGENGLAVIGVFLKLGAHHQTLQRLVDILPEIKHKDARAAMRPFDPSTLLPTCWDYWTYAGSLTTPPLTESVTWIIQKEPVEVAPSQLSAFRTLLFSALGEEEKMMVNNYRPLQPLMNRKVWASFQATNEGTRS
// Ki lookup, one value per entry
// note: answer is a bare numeric in µM

NS(=O)(=O)Oc1ccc2c(c1)S(=O)(=O)C(CC1CCCCCC1)=C2 0.682

Now examine the next entry.
Problem: GET /values?readout=Ki&system=Carbonic anhydrase 5A, mitochondrial (Homo sapiens)&item= `NS(=O)(=O)Oc1ccc2c3c(c(=O)oc2c1)CCCCC3`
Result: 0.765

----------
Carbonic anhydrase 12 (Homo sapiens, UniProt O43570) pKi data
Sequence (O43570 whole entry): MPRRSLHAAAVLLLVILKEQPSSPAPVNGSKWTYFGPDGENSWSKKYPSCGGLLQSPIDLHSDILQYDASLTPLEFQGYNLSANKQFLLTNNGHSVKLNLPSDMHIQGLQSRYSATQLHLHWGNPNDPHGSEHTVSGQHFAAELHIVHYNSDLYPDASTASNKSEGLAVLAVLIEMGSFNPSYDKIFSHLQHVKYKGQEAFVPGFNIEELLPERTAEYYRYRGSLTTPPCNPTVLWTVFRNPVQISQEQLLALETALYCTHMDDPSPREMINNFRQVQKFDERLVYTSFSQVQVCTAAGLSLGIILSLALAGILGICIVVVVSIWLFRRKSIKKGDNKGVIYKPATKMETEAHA
Lab note: report pKi as minus log10 of the concentration in molar units, number only.

MOLECULE	TESTED_ON	NUMERIC_VALUE
NS(=O)(=O)Oc1ccc2c(c1)S(=O)(=O)C(CC1CCCCCC1)=C2	Carbonic anhydrase 12 (Homo sapiens, UniProt O43570)	7.89

Now examine the next entry.
Problem: I'd like to know its pKi. The molecule in question is NS(=O)(=O)Oc1ccc2c3c(c(=O)oc2c1)CCCCC3 [IROSUSTAT]
Result: 7.92

----------
Carbonic anhydrase 1 (Homo sapiens) pKi data
Sequence (P00915 whole entry): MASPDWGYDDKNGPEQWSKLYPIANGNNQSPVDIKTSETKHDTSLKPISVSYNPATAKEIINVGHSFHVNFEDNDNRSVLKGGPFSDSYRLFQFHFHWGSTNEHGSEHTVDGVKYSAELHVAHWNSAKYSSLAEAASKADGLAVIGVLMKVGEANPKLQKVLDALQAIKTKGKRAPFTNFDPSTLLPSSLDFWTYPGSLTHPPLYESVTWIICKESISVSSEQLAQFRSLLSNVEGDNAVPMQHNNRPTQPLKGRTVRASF
Lab note: report pKi as minus log10 of the concentration in molar units, number only.

NS(=O)(=O)Oc1ccc2c3c(c(=O)oc2c1)CCCCC3 5.46

Now examine the next entry.
Problem: GET /values?readout=pKi&system=Carbonic anhydrase 1 (Homo sapiens)&item= `NS(=O)(=O)Oc1ccc2c(c1)S(=O)(=O)C(CC1CCCCCC1)=C2`
Result: 5.44

----------
molecular target: Carbonic anhydrase 7 (Homo sapiens, UniProt P43166); experiment: Inhibition of human cloned CA7 by stopped-flow CO2 hydration method
Sequence (P43166 whole entry): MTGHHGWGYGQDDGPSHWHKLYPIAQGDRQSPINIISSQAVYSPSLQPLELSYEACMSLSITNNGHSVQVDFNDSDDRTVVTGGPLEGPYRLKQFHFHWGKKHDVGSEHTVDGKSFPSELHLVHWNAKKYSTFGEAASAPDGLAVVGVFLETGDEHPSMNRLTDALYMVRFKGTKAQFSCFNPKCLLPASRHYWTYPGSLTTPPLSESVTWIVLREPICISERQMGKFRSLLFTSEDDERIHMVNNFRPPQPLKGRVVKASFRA
OBSERVATION_TYPE: Ki (nM)
// note: answer is a bare numeric in nM

Problem: I'd like to know its Ki. The compound in question is `NS(=O)(=O)Oc1ccc2c3c(c(=O)oc2c1)CCCCC3`
Result: 23

----------
Carbonic anhydrase 3 (Homo sapiens) pKi data
Sequence (P07451 whole entry): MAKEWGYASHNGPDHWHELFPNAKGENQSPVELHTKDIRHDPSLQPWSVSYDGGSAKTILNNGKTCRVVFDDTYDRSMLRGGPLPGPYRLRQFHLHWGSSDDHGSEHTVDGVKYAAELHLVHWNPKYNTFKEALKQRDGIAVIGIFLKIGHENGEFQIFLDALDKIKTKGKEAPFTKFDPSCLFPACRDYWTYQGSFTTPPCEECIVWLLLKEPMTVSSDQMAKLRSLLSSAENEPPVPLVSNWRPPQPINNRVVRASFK
Lab note: report pKi as minus log10 of the concentration in molar units, number only.

COMPOUND	TESTED_ON	pKi
NS(=O)(=O)Oc1ccc2c(c1)S(=O)(=O)C(CC1CCCCCC1)=C2	Carbonic anhydrase 3 (Homo sapiens)	3.13

Problem: GET /values?readout=pKi&system=Carbonic anhydrase 3 (Homo sapiens)&item= NS(=O)(=O)Oc1ccc2c3c(c(=O)oc2c1)CCCCC3 [IROSUSTAT]
Result: 3.15

----------
Carbonic anhydrase 6 (Homo sapiens) Ki data
Sequence (P23280 whole entry): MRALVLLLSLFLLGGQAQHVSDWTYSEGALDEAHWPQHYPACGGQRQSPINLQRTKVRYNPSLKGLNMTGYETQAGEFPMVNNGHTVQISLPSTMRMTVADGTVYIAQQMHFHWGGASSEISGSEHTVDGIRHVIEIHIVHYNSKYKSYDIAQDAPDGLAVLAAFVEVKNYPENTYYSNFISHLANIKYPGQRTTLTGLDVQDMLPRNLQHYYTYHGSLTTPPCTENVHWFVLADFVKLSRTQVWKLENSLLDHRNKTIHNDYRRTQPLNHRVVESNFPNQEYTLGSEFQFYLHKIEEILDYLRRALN
// note: answer is a bare numeric in nM

Problem: GET /values?readout=Ki&system=Carbonic anhydrase 6 (Homo sapiens)&item= `NS(=O)(=O)Oc1ccc2c(c1)S(=O)(=O)C(CC1CCCCCC1)=C2`
Result: 654

Problem: GET /values?readout=Ki&system=Carbonic anhydrase 6 (Homo sapiens)&item= NS(=O)(=O)Oc1ccc2c3c(c(=O)oc2c1)CCCCC3 [IROSUSTAT]
Result: 653

----------
Carbonic anhydrase 9 (Homo sapiens) pKi data
Lab note: report pKi as minus log10 of the concentration in molar units, number only.

NS(=O)(=O)Oc1ccc2c3c(c(=O)oc2c1)CCCCC3 7.47

Now examine the next entry.
Problem: GET /values?readout=pKi&system=Carbonic anhydrase 9 (Homo sapiens)&item= `NS(=O)(=O)Oc1ccc2c(c1)S(=O)(=O)C(CC1CCCCCC1)=C2`
Result: 7.74
